Assay: Compound was evaluated for the oral bioavailability in rat
Format: ADME, organism-based
Settings: in vivo, read-out: Bioavailabiility
MEASURED PARAMETER: bioavailability (%)
Respond with the bare value in %.

COc1cc(C(=O)NS(=O)(=O)c2ccccc2C)ccc1Cc1cn(C)c2ccc(C(=O)NCC(C)CC(F)(F)F)cc12 (configuration not stated) = 33

I have this compound here, COc1cc(C(=O)NS(=O)(=O)c2ccccc2C)ccc1Cc1cn(C)c2ccc(C(=O)NC[C@H](C)CC(F)(F)F)cc12 , and I need its recorded bioavailability.
33

###

pKB by entry:
Biological target: UniProt:Q2NNR5
Sequence (Q2NNR5 whole entry): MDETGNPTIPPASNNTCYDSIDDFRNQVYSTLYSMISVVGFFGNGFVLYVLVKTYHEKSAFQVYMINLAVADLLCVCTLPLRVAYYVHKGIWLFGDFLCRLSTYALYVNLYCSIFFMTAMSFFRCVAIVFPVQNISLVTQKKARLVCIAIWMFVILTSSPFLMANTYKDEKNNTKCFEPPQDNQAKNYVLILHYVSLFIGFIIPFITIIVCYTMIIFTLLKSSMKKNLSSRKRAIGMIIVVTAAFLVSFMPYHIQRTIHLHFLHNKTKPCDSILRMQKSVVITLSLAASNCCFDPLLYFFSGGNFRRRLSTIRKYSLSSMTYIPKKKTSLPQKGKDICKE
Test: Binding constant in guinea pig tracheal spirals with LTE4
Format: tissue-based
Settings: Trachea
Answer field: number only, no words.

COc1cc(C(=O)NS(=O)(=O)c2ccccc2C)ccc1Cc1cn(C)c2ccc(C(=O)NCCCC(F)(F)F)cc12 = 8.7

Give the reported pKB for COc1cc(C(=O)NS(=O)(=O)c2ccccc2C)ccc1Cc1cn(C)c2ccc(C(=O)NCC(C)(C)CC(F)(F)F)cc12 (system: UniProt:Q2NNR5).
8.9

Give the reported pKB for CCC(CNC(=O)c1ccc2c(c1)c(Cc1ccc(C(=O)NS(=O)(=O)c3ccccc3C)cc1OC)cn2C)CC(F)(F)F (configuration not stated) (system: UniProt:Q2NNR5).
9.6

Give the reported pKB for COc1cc(C(=O)NS(=O)(=O)c2ccccc2Cl)ccc1Cn1ccc2ccc(C(=O)NCC(C)CC(F)(F)F)cc21 (configuration not stated) (system: UniProt:Q2NNR5).
8.9

Give the reported pKB for COc1cc(C(=O)NS(=O)(=O)c2ccccc2C)ccc1Cc1cn(C)c2ccc(C(=O)NCC3CC(F)(F)C(F)(F)C3)cc12 (system: UniProt:Q2NNR5).
8.6

Give the reported pKB for CCC(CNC(=O)c1ccc2c(c1)c(Cc1ccc(C(=O)NS(=O)(=O)c3ccccc3C)cc1OC)cn2CC)C(F)(F)F (configuration not stated) (system: UniProt:Q2NNR5).
9

Give the reported pKB for COc1cc(C(=O)NS(=O)(=O)c2ccccc2C)ccc1Cc1cn(C)c2ccc(C(=O)NCC(C)CC(F)(F)F)cc12 (configuration not stated) (system: UniProt:Q2NNR5).
9.93

###

Assay: Partition coefficient (logP)
Details: octanol/water
logP by entry:
Answer field: number only, no words.

Consider the following illustrative entries.
CCC(CC)CNC(=O)c1ccc2c(c1)c(Cc1ccc(C(=O)O)cc1OC)cn2C = 5.42
CCC(CNC(=O)c1ccc2c(c1)c(Cc1ccc(C(=O)NS(=O)(=O)c3ccccc3C)cc1OC)cn2C)CC(F)(F)F (stereo not given) = 6.45
COc1cc(C(=O)NS(=O)(=O)c2ccccc2C)ccc1Cc1cn(C)c2ccc(C(=O)NCCC(C)C(F)(F)F)cc12 (stereo not given) = 6.3

I have this molecule here, COc1cc(C(=O)NS(=O)(=O)c2ccccc2C)ccc1Cc1cn(C)c2ccc(C(=O)NCC(C)CC(F)(F)F)cc12 (stereo not given) , and I need its recorded logP.
6.18

I have this molecule here, CCC(C)CNC(=O)c1ccc2c(c1)c(Cc1ccc(C(=O)O)cc1OC)cn2C (stereo not given) , and I need its recorded logP.
4.86

###

Test: Bioavailability in guinea pig
Type: ADME, organism-based, Cavia porcellus
Conditions: in vivo
MEASURED PARAMETER: bioavailability (%)
Respond with the bare value in %.

COc1cc(C(=O)NS(=O)(=O)c2ccccc2C)ccc1Cc1cn(C)c2ccc(C(=O)NCC(C)CC(F)(F)F)cc12 (configuration not stated) = 12

Continue with the compound presented below.
I have this compound here, COc1cc(C(=O)NS(=O)(=O)c2ccccc2C)ccc1Cc1cn(C)c2ccc(C(=O)NC[C@H](C)CC(F)(F)F)cc12 , and I need its recorded bioavailability.
15
